assay: Volume of distribution at steady state in Beagle dog at 1 mg/kg, iv and 5 mg/kg, po; type: ADME, organism-based, Canis lupus familiaris; conditions: in vivo, read-out: Vdss
TEST_READOUT: Vd (L/kg)
// note: answer is a bare numeric in L/kg

Recorded results for 2 compounds are shown here.
[[record]]
given_smiles = "O=C(c1ccc(Oc2ccc(F)cc2)cn1)N1CCCN(C2CCC2)CC1"
assay_result = 3.6

[[record]]
given_smiles = "N#Cc1cccc(Oc2ccc(C(=O)N3CCCN(C4CCC4)CC3)cn2)c1"
assay_result = 1.6


# input for lookup
Record O=C(c1ccc(Oc2ccc(F)cc2)nc1)N1CCCN(C2CCC2)CC1 . Reported Vd: 7.2
